What follows is literature data on pKi for Beta-secretase 2 (Homo sapiens, UniProt Q9Y5Z0).
To interpret pKi, take it as minus log10 of a concentration measured in moles per litre.

# annotated cases, reported pKi shown
// query API: value(readout= pKi, system= Beta-secretase 2 (Homo sapiens, UniProt Q9Y5Z0), query= `CC1(C)C[C@@H]2[C@](c3ccccc3F)(CO1)NC(=N)C(C)(C)S2(=O)=O` )
// result 6.53

// query # returns recorded pKi (system: Beta-secretase 2 (Homo sapiens, UniProt Q9Y5Z0)) for `CN1C(=N)N[C@](C)(c2sc(-c3nnc(-c4ccn(C)n4)o3)cc2Cl)CS1(=O)=O`
// result 6.89

// query Quick check: pKi on Beta-secretase 2 (Homo sapiens, UniProt Q9Y5Z0), item `COc1cnc(C(=O)Nc2ccc3c(c2)[C@]2(COC3)CS(=O)(=O)C(C)(C)C(=N)N2)c(C)c1` ?
// result 8.30

// query Give recorded pKi with Beta-secretase 2 (Homo sapiens, UniProt Q9Y5Z0) for the following compound: `CN1C(=N)N[C@](C)(c2cc(Nc3nccc4cc(F)cnc34)ccc2F)CS1(=O)=O`
// result 9.62

Now look at this one.
// query Lab note: need pKi for `CN1CCC2(CC1)C(=N)N[C@](C)(c1cc(NC(=O)c3ccc(C#N)cn3)ccc1F)CS2(=O)=O` on Beta-secretase 2 (Homo sapiens, UniProt Q9Y5Z0), anyone have it?
// result 8.08

====

A compilation of Ki values for Beta-secretase 2 (Homo sapiens, UniProt Q9Y5Z0) from the published literature.
// returns Criterion not met unless Ki is strictly below 30 nM, in which case Criterion met

Reference set, count: 3
// query Is it true that Ki reported for `CN1C(=N)N[C@]2(C)c3cc(NC(=O)c4ncc(F)cc4F)ccc3CCC[C@@H]2S1(=O)=O` is less than 30 nM?
// result Criterion met

// query Consider the compound `C[C@H]1C[C@H]2C(=O)N(C)C(=N)N[C@@]2(c2cc(Oc3ncccc3F)c(F)cc2F)CO1` . Is its Ki strictly less than 30 nM?
// result Criterion met

// query Does the reported Ki of `C[C@H]1C[C@H]2C(=O)N(C)C(=N)N[C@@]2(c2cc(Oc3ncncc3F)ccc2F)CO1` stay below 30 nM?
// result Criterion met

Next:
// query Confirm or reject: Ki of Cc1nc(CNCC(O)C(Cc2ccccc2)NC(=O)c2cc(C(=O)NC(C)c3ccccc3)cc(N(C)S(C)(=O)=O)c2)c(C)o1 (stereo not drawn) lies strictly below 30 nM
// result Criterion not met

// query Identify whether the compound `CC1(C)C(=N)N[C@@]2(CCCc3ccc(NC(=O)c4ncc(C(F)(F)F)cn4)cc32)CS1(=O)=O` records Ki below 30 nM.
// result Criterion not met

// query Lab note: Ki threshold 30 nM. Does this compound come in strictly under it? `C[C@H]1C[C@@H]2[C@](c3cc(Oc4cc(C#N)ccn4)ccc3F)(CO1)NC(=N)C(C)(C)S2(=O)=O`
// result Criterion met

// query Find out if reported Ki for COc1cccc(CNCC(O)C(Cc2ccccc2)NC(=O)c2cc(C(=O)NCc3cccc(OC)c3)cc(N(C)S(C)(=O)=O)c2)c1 (stereo not drawn) is less than 30 nM
// result Criterion not met

// query For this compound, is Ki lower than 30 nM? `COc1cnc2c(Nc3ccc(F)c([C@]4(C)CS(=O)(=O)N(C)C(=N)N4)c3)ncnc2c1`
// result Criterion met

// query Confirm or reject: Ki of `COC[C@H]1C[C@@H]2[C@](c3cc(OCC45CC(C#N)(C4)C5)ccc3F)(CO1)NC(=N)N(C)S2(=O)=O` lies strictly below 30 nM
// result Criterion met

====

// merged dataset of Ki values, system = Beta-secretase 2 (Homo sapiens, UniProt Q9Y5Z0), multiple refs

Recorded results for 3 compounds are shown here.
// query Which Ki is reported for this compound? `CN1C(=N)N[C@]2(c3cc(NC(=O)c4ccc(C(F)(F)F)cn4)ccc3F)COC[C@@H]2S1(=O)=O`
// result 473 nM

// query Which measured Ki value corresponds to `C=CCCn1cc(F)c([C@]23CO[C@@H](C)C[C@H]2C(=O)N(C)C(=N)N3)cc1=O` ?
// result 1590 nM

// query Reported Ki for `CN1C(=N)N[C@](C)(c2cc(N[C@H]3CCc4cc(Cl)ccc43)ccc2F)CS1(=O)=O` : what is it?
// result 16.6 nM

New cases:
// query What does the data say about its Ki? Entry: `Cc1csc(COC(=O)N[C@@H](CS(C)(=O)=O)C(=O)N[C@@H](CC(C)C)[C@@H](O)C[C@@H](C)C(=O)NN(C)S(C)(=O)=O)n1`
// result > 1000 nM

// query Fill blank: measured Ki of the compound Cc1csc(CN(C)C(=O)c2cccc(C(=O)NC(Cc3ccccc3)C(O)CNCc3cccc(F)c3)c2)n1 (stereo not shown) is ____.
// result > 501 nM

// query Looking for the measured Ki of `CN1C(=N)N[C@](C)(c2sc(-c3nnc(-c4ccc(F)c(F)c4)o3)cc2Cl)CS1(=O)=O` , can you help?
// result 81.3 nM

// query # query: Ki of entry `C[C@H]1C[C@H]2C(=O)N(C)C(=N)N[C@@]2(c2cc(Oc3ccccn3)ccc2F)CO1`
// result 13.4 nM

// query Requested field: Ki. Item: `CC1(C)C[C@@H]2[C@](c3cc(Oc4cc(F)cnc4F)ccc3F)(CO1)NC(=N)C(C)(C)S2(=O)=O`
// result 88 nM

====

From various publications: pKi for Beta-secretase 2 (Homo sapiens).
pKi here is simply -log10 of the concentration when that concentration is written in mol/L.

Please review the entries below; each comes with its answer.
// query For the compound `CN1C(=N)N[C@@]2(c3cc(Oc4cc(C#N)ccn4)ccc3F)CO[C@@H](C3CC3)C[C@H]2C1=O` , what pKi is on record?
// result 7.89

// query For `CN=[S@]1(=O)C[C@@](C)(c2cc(Nc3nccc4cc(OC)cnc34)ccc2F)NC(=N)C1(C)C` , what is its reported pKi?
// result 7.60

// query Look up pKi for this compound: `CN1C(=N)N[C@](C)(c2cc(N[C@@H]3CCc4cc(C#N)cnc43)ccc2F)CS1(=O)=O`
// result 7.37

// switching to the query compound
// query For the compound shown here, `C[C@@]1(c2cc(Nc3nccc4cc(O)cnc34)ncc2F)CS(=O)(=O)[C@@](C)(C2CC2)C(N)=N1` , give the reported pKi.
// result 9.23

====

Across several studies, compounds have been characterized by their Ki on UniProtKB Q9Y5Z0; a selection follows.
Quick note: give the figure in nM, leave out the unit.

Solved cases below.
// query Please give the measured Ki for this compound: `C[C@@]1(c2cc(NC(=O)c3ccc(F)cn3)ccc2F)CS(=O)(=O)C2(CCCCC2)C(=N)N1`
// result 4.4

// query Recorded Ki of `COCC(=O)Nc1ccc2c(c1)[C@]1(CCO2)CS(=O)(=O)C(C)(C)C(=N)N1` , please.
// result 59

// query What Ki value was documented for this compound, `C[C@@]1(c2cc(NC(=O)c3ccc(Cl)cn3)ccc2F)CS(=O)(=O)C2(CC2)C(=N)N1` ?
// result 0.4

Read the next record carefully.
// query Dear colleague, I am looking for the recorded Ki of the following compound: `C[C@H]1C[C@H]2C(=O)N(C)C(=N)N[C@@]2(c2cc(Oc3ncccc3F)ncc2F)CO1`
// result 31.3

====

// compounds with Ki on Beta-secretase 2 (Homo sapiens, UniProt Q9Y5Z0), multi-source literature
API: label(entry) gives label 1 if the entry's Ki is strictly smaller than 10 nM; on equality or larger values it gives label 0.

Recorded results for 5 compounds are shown here.
// query Threshold test, Ki < 10 nM: `C[C@@]1(c2cc(Br)ccc2F)CS(=O)(=O)C2(CCCC2)C(=N)N1`
// result label 0

// query Find out if reported Ki for `CN1C(=N)N[C@](C)(c2sc(-c3nnc(-c4cncnc4)o3)cc2Cl)CS1(=O)=O` is less than 10 nM
// result label 0

// query is_below(Ki, 10 nM) for `COC[C@H]1C[C@H]2C(=O)N(C)C(=N)N[C@@]2(c2cc(OCC3CC3)ccc2F)CO1` ?
// result label 1

// query Hi there! Is Ki for `C[C@@]1(c2cc(NC(=O)c3cc4c(cn3)OC(F)(F)O4)ccc2F)CC[C@@](C)(S(=O)(=O)C(F)(F)F)C(N)=N1` below 10 nM, do you know?
// result label 0

// query Consider `COc1cnc(C(=O)Nc2ccc(F)c([C@]3(C)CS(=O)(=O)C4(CCN(C)CC4)C(=N)N3)c2)c(C)c1` . Does its Ki lie strictly below 10 nM?
// result label 0

Below: the item to evaluate.
// query Report whether reported Ki is lower than 10 nM (strictly) for `CN1C(=N)N[C@](C)(c2cc(NC(=S)c3ccc(Cl)cn3)cc(F)c2F)CS1(=O)=O`
// result label 1
